assay: Metabolic stability in human liver microsomes assessed as parent compound remaining at 1 uM preincubated for 5 mins followed by NADPH addition and measured after 30 mins by LC-MS/MS analysis; type: ADME, Microsome; settings: read-out: Stability
measure: remaining at 0.5 h, 1 µM (%)
Please respond with the number in % and leave the unit unwritten.

Check out these entries, answers already filled in.
Oc1cc(NCCCCCN2CCOCC2)ccc1Oc1c(F)c(F)c(C(F)(F)F)c(F)c1F :: 96.9
COc1cc(N)ccc1Oc1c(F)c(F)c(C(F)(F)F)c(F)c1F :: 87.1
CNc1ccc(Oc2c(F)c(F)c(C(F)(F)F)c(F)c2F)c(O)c1 :: 76
Oc1cc(NCCCCN2CCOCC2)ccc1Oc1c(F)c(F)c(C(F)(F)F)c(F)c1F :: 91.2

Turning now to a further molecule:
[ask] I'd like to know its remaining at 0.5 h, 1 µM. The molecule in question is `Nc1ccc(Oc2c(F)c(F)c(C(F)(F)F)c(F)c2F)cc1`
[reply] 7.4
